In this section, each of the variants is paired with its reported self-cleavage.
B1: CPEB3 Ribozyme (parent)
chain: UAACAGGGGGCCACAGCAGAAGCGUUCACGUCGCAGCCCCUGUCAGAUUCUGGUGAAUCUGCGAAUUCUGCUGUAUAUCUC

variants of: B1; assay: self-cleavage, relative activity (ratio to wild type); higher = more cleavage; in vitro, sequencing
Measured Parameter: self-cleavage

{"columns": ["Mutation Id", "Result Number"],
 "data": [
  ["A35C U41C", 0.72],
  ["U43G U60C", 0.13],
  ["U72A", 0.81],
  ["A18C A56G", 0.17],
  ["U48C C62U", 0.33],
  ["U1A A65G", 0.48],
  ["A5U U43C", 0.76],
  ["C34U A56G", 0.48],
  ["A56C", 0.63],
  ["G19U C50A", 0.15],
  ["A35G U49C", 1.05],
  ["G46U U60A", 0.38],
  ["U26C A65G", 0.3],
  ["U54G U66C", 0.28],
  ["U31A C59U", 0.37],
  ["A64U A75U", 0.45],
  ["A18G C23U", 0.12],
  ["G7A U43A", 0.32],
  ["C12G U49C", 0.16],
  ["C68A", 0.41],
  ["C4U C29U", 0.72],
  ["G10A G36A", 0.26]
]}
